System: HEp-2
Assay: Cytotoxicity against human Hep2 cells at exponential phase of growth after 48 hrs by MTT assay
Assay type: functional, cell-based
Settings: Homo sapiens, HEp-2, 48 h; read-out: IC50
metric: IC50 (µM)
Enter your answer as a number in µM; do not include the unit.

Example compounds with recorded IC50:
[
  {
    "compound": "Sc1ncnc2nc[nH]c12 [MERCAPTOPURINE ANHYDROUS]",
    "IC50 [µM]": 318
  },
  {
    "compound": "CC(C)C1=CC2=C[C@H]3OC(=O)[C@@]4(CCCC(C)(C)[C@H]34)C2=C(O)C1=O [SAGEQUINONE METHIDE A]",
    "IC50 [µM]": 19.2
  }
]

Prompt: Consider the compound shown here: `C[C@H]1COC2=C1C(=O)C1=C(C2=O)[C@@]23CCCC(C)(C)[C@@H]2C[C@@H]1OC3=O` What is its recorded IC50?
Response: 39.8

Prompt: Request the reported IC50 associated with `CC(C)c1cc2c(c(O)c1O)[C@@]1(C(=O)O)CCCC(C)(C)[C@@H]1C[C@H]2Sc1ccccc1`
Response: 18.9

Prompt: Reported IC50, compound `CC(C)C1=CC2=C(C(=O)C1=O)[C@@]13CCCC(C)(C)[C@@H]1[C@@H](O)[C@@H]2OC3=O` : ____
Response: 39.2

====

Tested on: Bacillus subtilis
Assay: Antibacterial activity against Bacillus subtilis ATCC 6051 after 24 hrs by broth dilution assay
Format: functional
Conditions: Bacillus subtilis, ATCC 6051, 24 h; read-out: MIC
Listed below: MIC values for each entry.
Return type: number; implicit unit µg/mL.

The following compounds have reported results that may help.
[
  {
    "compound": "CO/N=C(\\C(=O)N[C@@H]1C(=O)N2C(C(=O)O)=C(COC(C)=O)CS[C@H]12)c1csc(N)n1 [CEFOTAXIME]",
    "value-unit": "µg/mL",
    "MIC": 8
  },
  {
    "compound": "CC(C)c1cc2c(c(O)c1O)[C@@]13CCCC(C)(C)[C@@H]1[C@H](OC3=O)[C@H]2O [ROSMANOL]",
    "value-unit": "µg/mL",
    "MIC": 10
  },
  {
    "compound": "CC(C)c1cc2c(c(O)c1O)[C@@]13CCCC(C)(C)[C@@H]1[C@@H](O)[C@@H]2OC3=O [ISOROSMANOL]",
    "value-unit": "µg/mL",
    "MIC": 30
  }
]

Prompt: Returns the measured MIC for the input compound. Input: CC(C)c1cc2c(c(O)c1O)[C@@]13CCCC(C)(C)[C@@H]1C[C@@H]2OC3=O [CARNOSOL]
Response: 4

Prompt: Given CC(C)C1=CC2=C(C(=O)C1=O)[C@@]13CCCC(C)(C)[C@@H]1[C@H](OC3=O)[C@H]2O [ROSMAQUINONE] , state its recorded MIC.
Response: 8

====

Tested on: Vero
Assay: Cytotoxicity against african green monkey Vero cells at lag phase of growth after 48 hrs by MTT assay
Assay type: cell-based, Chlorocebus sabaeus
Details: Chlorocebus sabaeus, Vero, 48 h; read-out: IC50
metric: IC50

Worked examples, 8 molecules total:
[
  {
    "molecule": "CC(C)C1=CC2=C(C(=O)C1=O)[C@@]13CCCC(C)(C)[C@@H]1[C@H](OC3=O)[C@H]2O",
    "reported-measurement": "> 60 µM"
  },
  {
    "molecule": "CO[C@@H]1c2cc(C(C)C)c(O)c(O)c2[C@@]23CCCC(C)(C)[C@@H]2[C@@H]1OC3=O",
    "reported-measurement": "36.7 µM"
  },
  {
    "molecule": "C[C@H]1COC2=C1C(=O)C1=C(C2=O)[C@@]23CCCC(C)(C)[C@@H]2C[C@@H]1OC3=O",
    "reported-measurement": "> 58.4 µM"
  },
  {
    "molecule": "C[C@H]1COc2c1cc1c(c2O)[C@@]23CCCC(C)(C)[C@@H]2C[C@@H]1OC3=O",
    "reported-measurement": "> 60 µM"
  },
  {
    "molecule": "CC(C)c1cc2c(c(O)c1O)[C@@]13CCCC(C)(C)[C@@H]1C[C@@H]2OC3=O",
    "reported-measurement": "> 60 µM"
  },
  {
    "molecule": "COC(=O)C1=C2C=C(C(C)C)COC2(O)[C@H]2OC(=O)[C@@]13CCCC(C)(C)[C@H]23 (stereo partly specified)",
    "reported-measurement": "> 60 µM"
  },
  {
    "molecule": "CO[C@H]1C2=C(C(=O)C(=O)C(C(C)C)=C2)[C@@]23CCCC(C)(C)[C@@H]2[C@@H]1OC3=O",
    "reported-measurement": "> 60 µM"
  },
  {
    "molecule": "CC(C)c1cc2c(c(O)c1O)[C@@]13CCCC(C)(C)[C@@H]1[C@@H](O)[C@@H]2OC3=O",
    "reported-measurement": "> 60 µM"
  }
]

Prompt: Lab request: please report IC50 under test system Vero for `CC(C)c1cc2c(c(O)c1O)[C@@]1(C(=O)O)CCCC(C)(C)[C@@H]1C[C@H]2Sc1ccccc1`
Response: 6.1 µM

Prompt: # value lookup — system Vero, readout IC50, item `CC(C)c1cc2c(c(O)c1O)[C@@]13CCCC(C)(C)[C@@H]1[C@H](OC3=O)[C@H]2O`
Response: 19.9 µM

Prompt: Give Vero IC50 for CC(C)C1=CC2=C[C@H]3OC(=O)[C@@]4(CCCC(C)(C)[C@H]34)C2=C(O)C1=O [SAGEQUINONE METHIDE A]
Response: > 60 µM

Prompt: Kindly state the measured IC50 obtained for `Cc1coc2c1C(=O)C1=C(C2=O)[C@@]23CCCC(C)(C)[C@@H]2C[C@@H]1OC3=O` with Vero.
Response: > 58.8 µM

Prompt: Observed IC50 on Vero for Sc1ncnc2nc[nH]c12 [MERCAPTOPURINE ANHYDROUS] , please.
Response: 67.5 µM

Prompt: Please state recorded IC50 (tested on Vero) of `CO[C@H]1c2cc(C(C)C)c(O)c(O)c2[C@@]23CCCC(C)(C)[C@@H]2[C@@H]1OC3=O`
Response: 42.2 µM

Prompt: For the record `CC(C)C1=CC2=C(C(=O)C1=O)[C@@]13CCCC(C)(C)[C@@H]1[C@@H](O)[C@@H]2OC3=O` , what value of IC50 is listed for Vero?
Response: > 60 µM

Prompt: Please tell me: IC50 of CC(=O)OC[C@H](C)C1=C(OC(C)=O)C(O)C2=C(C1=O)[C@@H]1C[C@H]3C(C)(C)CCC[C@]23C(=O)O1 (stereo partly specified) , system Vero?
Response: > 45 µM
